Where do the numbers come from? From ChEMBL document CHEMBL3988442.

Measurement target: Aspartate--tRNA(Asp/Asn) ligase (Mycobacterium tuberculosis (strain ATCC 25618 / H37Rv)); further: in the data most compounds retested in dose-response had high values
Sequence (whole entry): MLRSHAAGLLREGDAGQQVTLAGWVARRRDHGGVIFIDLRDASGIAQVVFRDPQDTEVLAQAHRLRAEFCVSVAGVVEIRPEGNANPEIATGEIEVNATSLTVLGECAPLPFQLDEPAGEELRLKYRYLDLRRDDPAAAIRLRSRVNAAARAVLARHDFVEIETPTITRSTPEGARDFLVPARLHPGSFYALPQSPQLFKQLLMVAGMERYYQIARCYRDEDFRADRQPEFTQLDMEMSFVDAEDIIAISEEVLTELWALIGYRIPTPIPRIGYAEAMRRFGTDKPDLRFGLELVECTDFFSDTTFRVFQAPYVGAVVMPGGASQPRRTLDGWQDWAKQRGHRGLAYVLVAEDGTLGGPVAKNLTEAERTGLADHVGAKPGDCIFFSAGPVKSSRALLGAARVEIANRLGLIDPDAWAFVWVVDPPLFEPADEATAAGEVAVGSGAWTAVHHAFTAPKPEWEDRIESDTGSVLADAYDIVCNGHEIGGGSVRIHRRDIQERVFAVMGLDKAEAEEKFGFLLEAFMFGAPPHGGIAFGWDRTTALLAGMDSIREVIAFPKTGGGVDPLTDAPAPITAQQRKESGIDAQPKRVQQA
Test method notes: Assay for Asp RNA synthetase-1 from Mycobacterium tuberculosis
Type: functional
Parameters: scale not given: direction of the effect not stated beside the values
Condition set: 30 µM
Endpoint: Percent Effect (%)
Give a bare numeral; the unit % is implied.

Please review the entries below; each comes with its answer.
1) CC(C)c1nc(CN(C)C2CCN(Cc3nc(C4CC4)no3)C2)no1 (configuration not stated)    5.06
2) Cc1nccn1C1CCCN(C(=O)C2=NN(C)C(=O)CC2)C1 (configuration not stated)    -1.52
3) Cc1cc(-c2cnc(NCc3cccnc3)nc2C(C)C)on1    6.13
4) Cc1cnn(CC2CCCN2Cc2nnc(Cc3ccccc3)o2)c1 (configuration not stated)    -0.062
5) O=C([C@H]1COC[C@H]2CN(Cc3ccco3)C[C@H]21)N1CCCO1    6.23
6) c1ccc(OC2CCCC2)c(CNC2CCc3ncnn3C2)c1 (configuration not stated)    -1.83
7) Cc1cc(C(=O)N2CC[C@H](OCC3CC3)[C@@H]2Cc2cccnc2)no1    1.17
8) CCOCC1CC2(CCN(C(=O)c3ccccn3)CC2)CO1 (configuration not stated)    0.961

Ask: Name the reported Percent Effect value associated with the molecule Cc1noc(CN2CCC(c3ccnn3CCO)CC2)n1
Reply: -2.2

Ask: Name the reported Percent Effect value associated with the molecule Cc1cccc(CN2CCC3(CCCN(C(=O)NC4CC4)C3)C2=O)n1 (configuration not stated)
Reply: 6.63

Ask: Name the reported Percent Effect value associated with the molecule CCOc1ccccc1-c1noc(CN2CC(n3cccn3)C2)n1
Reply: 0.259

Ask: Name the reported Percent Effect value associated with the molecule Cc1nn(C)c(C)c1C1COCCN1c1ncnc2sccc12 (configuration not stated)
Reply: 0.54

* * *

Percent Effect values by entry
Measurement target: Shiga toxin 2 (Escherichia coli O157:H7) (UniProt P09385+P09386)
Test method notes: E. coli 0.157:H7 Shiga Toxin SOP - stx2 screening assay
Type: functional
Design: scale not given: direction of the effect not stated beside the values
Condition set: 30 µM
Give a bare numeral; the unit % is implied.

Please review the entries below; each comes with its answer.
1) O=S(=O)(Nc1cnn(C2CCOCC2)c1)c1ccc2c(c1)CCO2    -15.1
2) CNC(=O)c1cccc(NC(=O)CN2CCN(S(C)(=O)=O)CC2)c1    1.24
3) CC(Cn1cccn1)NC(=O)Nc1ccc(F)cc1 (configuration not stated)    -31.3
4) O=C(NCc1nncn1-c1ccccc1)C1CC(=O)N(CC2CC2)C1 (configuration not stated)    23.5
5) Cc1ccc(S(=O)(=O)N2C[C@@H]3C[C@@H](NC(=O)C(C)(C)C)[C@@H]3C2)cc1    6.78

Ask: Name the reported Percent Effect value associated with the molecule C[C@@H]1CN(Cc2ccsc2)C[C@]12CCN(Cc1cccnc1)C2=O
Reply: -6.36

* * *

Measurement target: Aspartate--tRNA(Asp/Asn) ligase (Mycobacterium tuberculosis (strain ATCC 25618 / H37Rv)); further: in the data most compounds retested in dose-response had high values
Test method notes: Assay for Asp RNA synthetase-1 from Mycobacterium tuberculosis
Format: functional
Design: scale not given: direction of the effect not stated beside the values
Condition set: 30 µM
Endpoint: Percent Effect (%)
Give a bare numeral; the unit % is implied.

Please review the entries below; each comes with its answer.
1) Cc1ccc(CN2CCn3cc(CN(C)Cc4ccco4)nc3C2)o1    1.01
2) CNC(=O)c1cc2c(nc1N(C)C)CCN(S(=O)(=O)CC(C)C)CC2    -0.801
3) CC(C)(C)C(O)CN1CCN(C(=O)c2cccc3ncccc23)CC1 (stereo not drawn)    0.278

Ask: Name the reported Percent Effect value associated with the compound O=C(C1=CCCC1)N1C[C@@H]2COC[C@]2(COc2cccnc2)C1
Reply: -3.68

Ask: Name the reported Percent Effect value associated with the compound Cc1nn(C)c(C)c1C1CCCN1CC(=O)Nc1ccncc1 (stereo not drawn)
Reply: 1.52

* * *

Measurement target: Shiga toxin 2 (Escherichia coli O157:H7) (UniProt P09385+P09386)
Test method notes: E. coli 0.157:H7 Shiga Toxin SOP - stx2 screening assay
Format: functional
Parameters: scale not given: direction of the effect not stated beside the values
Condition set: 30 µM
Percent Effect values by entry
Give a bare numeral; the unit % is implied.

Please review the entries below; each comes with its answer.
1. Cc1n[nH]cc1C(=O)N1CCCC(n2nnc3cc(F)ccc32)C1 (stereo unspecified)    -9.56
2. CC1CN(C)c2ccccc2CN1C(=O)c1ccncc1 (stereo unspecified)    -12.6
3. Cc1cccc(CN2C[C@@H]3COC[C@]3(CNC(=O)c3ccsc3)C2)n1    -15.8
4. COCCN1CCc2cc(C(=O)NCC3CC3)c(NC(C)C)nc2CC1    6.55
5. CC(Cn1cncn1)NCc1nncn1C1CCCCC1 (stereo unspecified)    2.43

Ask: Name the reported Percent Effect value associated with the molecule O=C(NCC1CC1)C1CCC2(CCN(C(=O)c3ccccn3)CC2)O1 (stereo unspecified)
Reply: 1.47

Ask: Name the reported Percent Effect value associated with the molecule CC(C)(C)C(=O)N1CCCC1c1nc(O)cc(-c2ccccn2)n1 (stereo unspecified)
Reply: 5.71

Ask: Name the reported Percent Effect value associated with the molecule O=C(NCCNc1ccc(C(F)(F)F)cn1)c1cncc(Br)c1
Reply: 28.2

Ask: Name the reported Percent Effect value associated with the molecule Fc1ccccc1-c1noc2c1CN(CC1CC1)CC2
Reply: -8.88

Ask: Name the reported Percent Effect value associated with the molecule O=C(Cc1ccc(-n2cccn2)cc1)N1CCN2CCCCC2C1 (stereo unspecified)
Reply: -24.9

Ask: Name the reported Percent Effect value associated with the molecule CC(c1nc(C(C)(C)C)no1)N1CCN(CC(=O)N2CCOCC2)CC1 (stereo unspecified)
Reply: 7.56

* * *

Measurement target: Shiga toxin 2 (Escherichia coli O157:H7) (UniProt P09385+P09386)
Test method notes: E. coli 0.157:H7 Shiga Toxin SOP - stx2 screening assay
Assay type: functional
Set-up: scale not given: direction of the effect not stated beside the values
Condition set: 30 µM
Endpoint: Percent Effect (%)
Give a bare numeral; the unit % is implied.

Please review the entries below; each comes with its answer.
1) CC(NC(=O)NCCOc1ccc(F)c(F)c1)c1nncn1C (stereo not drawn)    27.5
2) CN1CCCN(C[C@@H]2CN(C(=O)CCC3CCCC3)C[C@@H]2CO)CC1    -19.6
3) CC(NC(=O)CCCOc1ccccc1)c1nnc2n1CCCCC2 (stereo not drawn)    19.8
4) Cc1nc(CN(C)C(=O)Nc2cnn(CC3CCCO3)c2)cs1 (stereo not drawn)    -5.02
5) CO[C@@H]1CCN(Cc2cnn(C)c2)[C@@H]2CN(Cc3ccco3)C[C@@H]21    -22

Ask: Name the reported Percent Effect value associated with the compound N#CCSCCCN1CCN(C(=O)c2ccc(Cl)cc2)CC1
Reply: -35.2

Ask: Name the reported Percent Effect value associated with the compound CN(C)C(=O)N1CCc2c(CNc3ncccn3)cncc2C1
Reply: -10.5

Ask: Name the reported Percent Effect value associated with the compound O=C(c1cccc(CNS(=O)(=O)c2ccccc2F)c1)N1CCCC1
Reply: 22.1

Ask: Name the reported Percent Effect value associated with the compound CCOC(CC)C(=O)NCCC(=O)N1CCN(c2ncccn2)CC1 (stereo not drawn)
Reply: -0.0687

Ask: Name the reported Percent Effect value associated with the compound CCCC(=O)N1CC[C@@H]2[C@H](CC1)N(Cc1cccnc1)CCS2(=O)=O
Reply: -7.37

Ask: Name the reported Percent Effect value associated with the compound CCn1ccnc1CN1CCN(CC(=O)NC(C)(C#N)C2CC2)CC1 (stereo not drawn)
Reply: 27.2

Ask: Name the reported Percent Effect value associated with the compound CN(C)c1ccc(CC(=O)N[C@@H]2CCNC[C@H]2O)cc1
Reply: 1.28

Ask: Name the reported Percent Effect value associated with the compound COc1ccccc1CCN(C)C(=O)NC(C)c1nncn1C (stereo not drawn)
Reply: 1.17

Ask: Name the reported Percent Effect value associated with the compound O=C(NCc1cn2c(n1)CN(CC1CCOCC1)CC2)C1CCC1
Reply: -18.2

Ask: Name the reported Percent Effect value associated with the compound CC(Cn1cccn1)NC(=O)N1CCN(Cc2cccs2)CC1 (stereo not drawn)
Reply: -23.7

Ask: Name the reported Percent Effect value associated with the compound CN1CCN(c2nc(O)c3c(-c4ccccn4)ccnc3n2)CC1
Reply: 7.03

Ask: Name the reported Percent Effect value associated with the compound CCN1CC(C(=O)N2CCC(Oc3ccccc3C)CC2)CC1=O (stereo not drawn)
Reply: -32.1

Ask: Name the reported Percent Effect value associated with the compound CN(C)c1cc(C(=O)N2CCN(c3cnccn3)CC2)ccn1
Reply: 3.8
